Test: Maximum solubility of alkanediols in water
Assay type: physicochemical
Settings: ambient temperature after 24 h storage at 5° C.; visual observation
readout_name: Maximum solubility in water (% by weight)

Worked cases, answers included:
INSERT INTO results (compound, obs_value) VALUES
  ('CCCCCCC(O)CO (stereo not shown) [1,2-Octandiol, 1,2-octanediol]', 0.5),
  ('CCCCC(O)CO (stereo not shown) [1,2-Hexandiol, 1,2-hexanediol]', 50),
  ('CCCCC(O)C(C)O (stereo not shown) [2,3-Heptanediol, 2,3-heptanediol]', 3.6),
  ('CCCCCC(O)CO (stereo not shown) [1,2-Heptanediol, 1,2-heptanediol]', 2.5);

A = CCCCCCC(O)C(C)O (stereo not shown) [2,3-Nonanediol, 2,3-nonanediol]
B = CCCCCCCC(O)CO (stereo not shown) [1,2-Nonanediol, 1,2-nonanediol]
Ask: // max by Maximum solubility in water (% by weight) over [ A , B ] // return label of chosen record
Result: A
